Target: UniProt P43220
Assay: GLP-1R agonist cAMP stimulation assay (HEK293/GLP1R/CRE-LUC cells, cAMP dynamic 2 Kit)
Conditions: HEK293/CRE-Luc cell line stably expressing the GLP-1 Receptor, 30 min at 37° C.
ENDPOINT LABEL: pEC50
The quantity pEC50 is defined as the negative base-10 logarithm of the molar concentration.

// pEC50 (UniProt P43220) for O=C(Nc1ccc2c(c1)nc(CN1CCC(c3cccc(OCc4ccc(Cl)cc4F)n3)CC1)n2C[C@@H]1CCO1)C1CCS(=O)(=O)CC1 [Compound 156a] = 8.52

// assay UniProt P43220, entry O=C(Nc1ccc2c(c1)nc(CN1CCC(c3cccc(OCc4ccc(Cl)cc4F)n3)CC1)n2C[C@@H]1CCO1)c1ccccn1 [Compound 170a] , pEC50 value = 9.85

Note to self: pEC50 of Cc1nnc(-c2ccc3c(c2)nc(CN2CCC(c4cccc5c4OC(C)(c4ccc(Cl)cn4)O5)CC2)n3C[C@@H]2CCO2)[nH]1 (stereo partly shown) [Compound 271a] with UniProt P43220 was 9.47

Item: C[C@H]1CN(c2nc(OCc3ccc(Cl)cc3F)ccc2F)CCN1Cc1nc2cc(-c3nnc(C(F)(F)F)[nH]3)nnc2n1C[C@@H]1CCO1 [Compound 514a] | System: UniProt P43220 | pEC50: 10.15

// returns pEC50 for COCCOc1ccc(C(=O)Nc2ccc3c(c2)nc(CN2CCC(c4cccc(OCc5ccc(Cl)cc5F)n4)CC2)n3C[C@@H]2CCO2)cn1 [Compound 177a] with UniProt P43220; value = 8.23

Sample O=C(Nc1ccc2c(c1)nc(CN1CCC(c3cccc(OCc4ccc(Cl)cc4F)n3)CC1)n2C[C@@H]1CCO1)c1ccncc1 [Compound 171a] , system: UniProt P43220. Its pEC50 is 9.57

The compound O=C(Nc1ccc2c(c1)nc(CN1CCC(c3cccc(OCc4ccc(Cl)cc4F)n3)CC1)n2C[C@@H]1CCO1)C1CCOCC1 [Compound 153a] on UniProt P43220: pEC50 was 9.52

// compound CO[C@@H](C)Cn1c(CN2CCC(c3cccc4c3O[C@@](C)(c3ccc(Cl)cc3F)O4)CC2)nc2cc(-c3noc(=O)[nH]3)ncc21 [Compound 421a] , assay UniProt P43220, pEC50 value: 9.47

The observed pEC50 for CC1(c2ccc(Cl)cc2F)Oc2cccc(C3CCN(Cc4nc5cc(-c6nnc(C(F)F)[nH]6)c(F)cc5n4C[C@@H]4CCO4)CC3)c2O1 (stereo partly shown) [Compound 249a] when tested with UniProt P43220 stands at 9.57

Bench note, UniProt P43220: O=c1[nH]c(-c2cc3nc(CN4CCC(c5ccc(F)c(OCc6ccc(Cl)cc6F)n5)CC4)n(C[C@@H]4CCO4)c3cn2)no1 [Compound 438a] , pEC50 reads 10.59

Bench note, UniProt P43220: entry C[C@H]1CN(c2ccc(F)c(OCc3ccc(C#N)cc3F)c2)CCN1Cc1nc2cc(-c3nnc(C(F)(F)F)[nH]3)ncc2n1C[C@@H]1CCO1 [Compound 506a] , its pEC50 = 10.12

pEC50 of Cc1cc(=O)[nH]c(-c2cc3nc(CN4CCC(c5cccc(OCc6ccc(Cl)cc6F)n5)CC4)n(C[C@@H]4CCO4)c3cn2)n1 [Compound 453a] , assay on UniProt P43220, is 8.72

Value (pEC50, UniProt P43220) for record Fc1cc(Cl)ccc1COc1cccc(C2CCN(Cc3nc4cc(-c5ccn[nH]5)ccc4n3C[C@@H]3CCO3)CC2)n1 [Compound 215a] = 8.57

====

Biological target: GLP-1 Receptor (Homo sapiens)
Experiment: GLP-1R agonist cAMP stimulation assay (HEK293/GLP1R/CRE-LUC cells, cAMP dynamic 2 Kit)
Conditions: HEK293/CRE-Luc cell line stably expressing the GLP-1 Receptor, 30 min at 37° C.
Text: Activation of GLP-1 receptor is known to stimulate cyclic AMP (cAMP) production in cells which indicates primary coupling to the Gαs subunit of the G protein heterotrimeric complex. […] To optimize functional activity directed toward Gαs coupling, a HEK293/CRE-Luc cell line developed by HDB stably expressing the GLP-1 Receptor was used. […]
pEC50: −log10 of the molar value.
Would you please tag the item yes (1) when its pEC50 is 10 or above, and no (0) when it is below?

Given the entry Fc1cc(Cl)ccc1COc1cccc(C2=CCN(Cc3nc4cc(-c5nnc(C(F)(F)F)[nH]5)cnc4n3C[C@@H]3CCO3)CC2)c1 [Compound 319a] , answer whether its pEC50 meets or surpasses 10.
no (0)

Assess whether reported pEC50 for CC1(c2ccc(C#N)cc2Cl)Oc2cccc(C3CCN(Cc4nc5cc(-c6nnc(C(F)(F)F)[nH]6)ccc5n4C[C@@H]4CCO4)CC3)c2O1 (stereo partly drawn) [Compound 353a] sits at 10 or higher.
yes (1)

Answer whether pEC50 of C[C@]1(c2ccc(Cl)cn2)Oc2cccc(C3CCN(Cc4nc5cc(-c6n[nH]c(C(F)(F)F)n6)cnc5n4C[C@@H]4CCO4)CC3)c2O1 (single isomer, unassigned) [Compound 333c] is greater than or equal to 10.
no (0)

# bool: pEC50 of O=C(Nc1ccc2c(c1)nc(CN1CCC(c3cccc(OCc4ccc(Cl)cc4F)n3)CC1)n2C[C@@H]1CCO1)C1CC(F)(F)C1 [Compound 152a] >= 10
no (0)

State whether the measured pEC50 reaches 10, counting equality as reaching it, for Cc1nnc(-c2cc3nc(CN4CCC(c5cccc6c5O[C@@](C)(c5ccc(Cl)cc5F)O6)CC4)n(C[C@@H]4CCO4)c3cn2)[nH]1 [Compound 289a]
yes (1)

Hello, I need to know if C[C@H]1CN(c2cccc(OCc3ccc(Cl)cc3F)n2)CCN1Cc1nc2cc(-c3nnc(C(F)(F)F)[nH]3)ncc2n1C[C@@H]1CCO1 [Compound 480a] has measured pEC50 not below 10. Thanks!
yes (1)

Does the reported pEC50 for CC1(c2ccc(Cl)cc2)Oc2cccc(C3=CCN(Cc4nc5cc(-c6nnc(C(F)(F)F)[nH]6)ccc5n4C[C@@H]4CCO4)CC3)c2O1 (stereo partly drawn) [Compound 255a] fall at or above the 10 mark?
no (0)

# bool: pEC50 of O=C(Nc1ccc2c(c1)nc(CN1CCC(c3cccc(OCc4ccc(Cl)cc4F)n3)CC1)n2C[C@@H]1CCO1)C1CCC(F)(F)C1 (stereo partly drawn) [Compound 186a] >= 10
no (0)

Say whether C[C@]1(c2ccc(Cl)cn2)Oc2cccc(C3CCN(Cc4nc5cc(-c6n[nH]c(C(F)(F)F)n6)cnc5n4C[C@@H]4CCO4)CC3)c2O1 (single isomer, unassigned) [Compound 333b] shows pEC50 of 10 or more.
yes (1)

Has CO[C@H](C)Cn1c(CN2CCC(c3cccc4c3O[C@@](C)(c3ccc(Cl)cn3)O4)CC2)nc2cc(-c3nnn[nH]3)ncc21 [Compound 429a] a recorded pEC50 greater than or equal to 10?
no (0)

Is pEC50 at least 10? Consider C[C@]1(c2ccc(Cl)cc2F)Oc2cccc(C3CCN(Cc4nc5cc(-c6nnc(C7CC7)[nH]6)ncc5n4C[C@@H]4CCO4)CC3)c2O1 [Compound 281a]
yes (1)

Quick check: does C[C@]1(c2ccc(C#N)cc2F)Oc2cccc(C3CCN(Cc4nc5cc(-c6n[nH]c(C(F)(F)F)n6)ncc5n4C[C@@H]4CCO4)CC3)c2O1 [Compound 342a] have pEC50 greater than or equal to 10?
yes (1)

Is pEC50 for COCCn1c(CN2CCC(c3cccc4c3OC(C)(c3ccc(Cl)cc3F)O4)CC2)nc2cc(-c3noc(=O)[nH]3)ccc21 (stereo not drawn) [Compound 230a] at or above 10?
no (0)

====

Target: GLP-1 Receptor (Homo sapiens, UniProt P43220)
Sequence (P43220 24-463, species assumed): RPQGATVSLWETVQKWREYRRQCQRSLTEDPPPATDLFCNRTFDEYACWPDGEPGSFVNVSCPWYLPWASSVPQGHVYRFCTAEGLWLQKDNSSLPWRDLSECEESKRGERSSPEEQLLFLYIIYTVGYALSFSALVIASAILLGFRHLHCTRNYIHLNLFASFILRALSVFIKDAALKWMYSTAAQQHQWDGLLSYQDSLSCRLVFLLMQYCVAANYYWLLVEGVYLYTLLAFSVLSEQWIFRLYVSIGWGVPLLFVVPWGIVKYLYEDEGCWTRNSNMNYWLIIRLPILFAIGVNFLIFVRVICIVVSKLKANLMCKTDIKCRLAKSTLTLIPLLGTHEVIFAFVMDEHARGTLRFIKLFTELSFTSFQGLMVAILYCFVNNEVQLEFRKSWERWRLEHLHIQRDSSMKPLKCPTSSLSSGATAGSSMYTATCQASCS
Assay: GLP-1R agonist cAMP stimulation assay (HEK293/GLP1R/CRE-LUC cells, cAMP dynamic 2 Kit)
Conditions: HEK293/CRE-Luc cell line stably expressing the GLP-1 Receptor, 30 min at 37° C.
Give measured EC50 for each item. Keep answers brief.
Numeric only. Scale: nM

// Cn1cc(-c2ccc3c(c2)nc(CN2CCC(c4cccc5c4OC(C)(c4ccc(Cl)cc4F)O5)CC2)n3C[C@@H]2CCO2)nn1 (stereo partly shown) [Compound 238a] : EC50 value = 0.12

The molecule listed as CO[C@H](C)Cn1c(CN2CCC(c3cccc4c3O[C@@](C)(c3ccc(Cl)cc3F)O4)CC2)nc2cc(-c3nnc(C(F)(F)F)[nH]3)cnc21 [Compound 247b] shows EC50 equal to 0.093

EC50 reported for this molecule CC1(c2ccc(Cl)cn2)Oc2cccc(C3CCN(Cc4nc5cc(-c6nnc(C7CC7)[nH]6)ncc5n4C[C@@H]4CCO4)CC3)c2O1 (stereo partly shown) [Compound 266a] : 0.094

The reported value for CO[C@H](C)Cn1c(CN2CCC(c3cccc4c3O[C@@](C)(c3ccc(Cl)cn3)O4)CC2)nc2cc(-c3nnc(C(F)(F)F)[nH]3)ncc21 [Compound 455a] in terms of EC50 is 0.12

Measured values drawn from patent US20230391760A1 for this set.
